measured_target: Somatostatin receptor type 2 (Homo sapiens)
Sequence (P30874 whole entry): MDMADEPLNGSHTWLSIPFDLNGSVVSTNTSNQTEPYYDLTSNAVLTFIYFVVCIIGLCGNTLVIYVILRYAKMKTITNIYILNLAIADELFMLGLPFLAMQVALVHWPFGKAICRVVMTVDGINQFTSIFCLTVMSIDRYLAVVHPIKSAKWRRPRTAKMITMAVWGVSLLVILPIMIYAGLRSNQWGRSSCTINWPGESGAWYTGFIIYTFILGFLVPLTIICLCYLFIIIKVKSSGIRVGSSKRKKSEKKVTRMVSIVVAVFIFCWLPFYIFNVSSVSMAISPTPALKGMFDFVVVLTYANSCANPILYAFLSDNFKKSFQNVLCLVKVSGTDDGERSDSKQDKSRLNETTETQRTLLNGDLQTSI
experiment_summary: Displacement of [125I]somatostatin from human full-length recombinant SSTR2 expressed in CHO-K1 cells by radioligand binding assay
assay_endpoint: IC50 (nM)
Numbers only, in nM.

Could you please provide reported IC50 for Cc1ccc([C@H]2C[C@@H]2COc2cc(NCc3nnc(C)s3)nc(C)n2)nc1 ? Thanks! 2800

====

experiment_summary: Unbound plasma clearance in rat
Assay type: ADME
particulars: in vivo
Threshold rule: CL free greater than or equal to 3000 mL/min/kg is MET; below that, NOT MET.

Cc1c(Cl)nc(OC[C@H]2C[C@@H]2c2ccccn2)nc1NCc1cnn(C)c1	NOT MET
Cc1ccc([C@H]2C[C@@H]2COc2cc(NCc3nnc(C)s3)nc(C)n2)nc1	NOT MET
COc1ccc([C@H]2C[C@@H]2COc2cc(NCc3cnn(C)c3)nc(C)n2)nc1	MET
Cc1nc(NCc2nnc(C)s2)cc(OC[C@H]2C[C@@H]2c2ccccn2)n1	NOT MET
Cc1nc(C)c(CNc2nc(OCCCc3ccc4ccccc4n3)nc(Cl)c2C)s1	MET

Does COc1ccc([C@H]2C[C@@H]2COc2cc(NCc3nnc(C)s3)nc(C)n2)nc1 have a reported CL free of at least 3000 mL/min/kg? NOT MET

Does Cc1ccc([C@H]2C[C@@H]2COc2cc(NCc3cnn(C)c3)nc(C)n2)nc1 have a reported CL free of at least 3000 mL/min/kg? MET

====

measured_target: Nuclear receptor subfamily 1 group I member 2 (Homo sapiens, UniProt O75469)
Sequence (O75469 whole entry): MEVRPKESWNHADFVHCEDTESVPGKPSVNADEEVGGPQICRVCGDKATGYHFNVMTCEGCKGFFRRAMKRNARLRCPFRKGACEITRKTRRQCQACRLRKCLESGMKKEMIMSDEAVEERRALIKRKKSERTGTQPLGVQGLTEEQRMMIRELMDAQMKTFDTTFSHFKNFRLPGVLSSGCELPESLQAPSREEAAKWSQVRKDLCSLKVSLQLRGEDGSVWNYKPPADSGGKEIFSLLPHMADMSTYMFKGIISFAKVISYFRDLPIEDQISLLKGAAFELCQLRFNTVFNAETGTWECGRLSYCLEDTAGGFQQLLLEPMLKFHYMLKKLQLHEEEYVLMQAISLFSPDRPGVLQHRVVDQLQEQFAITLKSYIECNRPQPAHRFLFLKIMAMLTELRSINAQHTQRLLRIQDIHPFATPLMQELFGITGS
experiment_summary: Activation of PXR (unknown origin) assessed as CYP3A4 induction
assay_endpoint: EC50

Could you please provide reported EC50 for Cc1ccc([C@H]2C[C@@H]2COc2cc(NCc3nnc(C)s3)nc(C)n2)nc1 [MK-8189] ? Thanks! > 30 µM

====

experiment_summary: Plasma concentration in rat at 0.08 mg/kg, po measured after 1 hr
Type: ADME, organism-based
assay_endpoint: concentration at 1 h (nM)
Numbers only, in nM.

Could you please provide reported concentration at 1 h for Cc1ccc([C@H]2C[C@@H]2COc2cc(NCc3nnc(C)s3)nc(C)n2)nc1 ? Thanks! 16

====

experiment_summary: Plasma concentration in MK-801-induced psychosis rat model at 0.5 mg/kg, po administered 1 hr prior to MK-801 administration and measured after 90 mins
Format: ADME, organism-based
particulars: time 150 min
assay_endpoint: concentration at 2.5 h (nM)
One number for each entry, in nM.

Could you please provide reported concentration at 2.5 h for Cc1ccc([C@H]2C[C@@H]2COc2cc(NCc3nnc(C)s3)nc(C)n2)nc1 ? Thanks! 36

====

experiment_summary: Selectivity ratio of Ki for N-terminal GST-tagged human recombinant PDE4A1A (1 to 647 residues) expressed in baculovirus-infected Sf9 cells to Ki for human PDE10A2 transfected in human AD293 cells cytosolic fraction
Can you tell me Ratio Ki for the items I'm about to list?

Answered cases to consult:
Cn1cc(CNc2cc(OC[C@H]3C[C@@H]3c3ccccn3)nc3cnccc23)cn1	> 7000
Cc1c(NCc2cnn(C)c2)cc(OC[C@H]2C[C@@H]2c2ccccn2)nc1Cl	> 30000
Cn1cc(CNc2cc(OC[C@H]3C[C@@H]3c3ccccn3)nc3ccncc23)cn1	> 20000
Cn1cc(CNc2cc(OC[C@H]3C[C@@H]3c3ccccn3)nc3ccccc23)cn1	> 5000

# input for lookup
Could you please provide reported Ratio Ki for Cn1cc(CNc2cc(OC[C@H]3C[C@@H]3c3ccccn3)nc3ccnn23)cn1 ? Thanks! > 5800
